Test system: SNB-75 CNS
Test: NCI tumour cell line growth inhibition, 48 h
molecules and their reported TGI

Take a look at these entries with their results.
Molecule	TGI
O=C1CNN=C(Cn2nc(-c3ccccc3)c3ccccc3c2=O)N1	> 100 µM
Cc1nc(-n2nc(-c3ccccc3)cc2-c2ccccc2)sc1C(=O)/C=C/c1ccccc1	89.7 µM

Request - read-out TGI | tested on SNB-75 CNS | molecule CCC1CN2CCc3c([nH]c4ccccc34)[C@@](C(=O)OC)(c3cc4c(cc3OC)N(C)C3C(O)(C(=O)OC)C(C(=O)OC)C5(CC)C=CCN6CCC43C65)C[C@@H](C2)[C@@H]1C(C)(C)C (some centres undefined)
> 10 µM

Request - read-out TGI | tested on SNB-75 CNS | molecule CCOC(=O)C1C(c2ccc(OC)cc2)c2c([nH]n(-c3ccccc3)c2=O)CC1(C)O (centres undefined)
> 100 µM

Request - read-out TGI | tested on SNB-75 CNS | molecule COc1cccc(N=NN2CCCC2)c1
> 100 µM

Request - read-out TGI | tested on SNB-75 CNS | molecule COc1ccc2c(c1)CC[C@@H]1C2CC[C@]2(C)C(=C=CP(=O)(O)O)CCC12 (some centres undefined)
> 100 µM
